Test: melting temperature; fluorescence melt of hairpins on a sequencing array, two-state fit, raised by 9.35 °C to match UV melts
Conditions: sodium 0.088 M
property_measured: Tm (°C)
Answers are plain numbers, in °C.

Example sequences with recorded Tm:
> print(dat)
                           item.sequence  property.measured  readout.unit  test.value
1          AGTGTGAAAACACT (((((....)))))                 Tm            °C        49.7
2  GCGGAGCGAAAGCCTCGC (((..((....))..)))                 Tm            °C        50.5
3  GAGATCGGAAACGGTCTC ((((.((....)).))))                 Tm            °C        51.3
4      GATCAAGTTCTTGATC ((((((....))))))                 Tm            °C        49.7

Which value of Tm has been reported for GGCTTCGCGAAAGCGGCC (((..(((....)))))) in the records?
48.8
